test system: SW-620; test: NCI tumour cell line growth inhibition, 48 h
Activity calls are given as the source filed them. Rule as the data show it: active = GI50 up to about 1.1 µM and inactive = higher.
// reported GI50 per item
MEASUREMENT_KIND: GI50

MOLECULE	EXPERIMENTAL_TARGET	MEASUREMENT_KIND	ENDPOINT_VALUE
COc1cc2c(c(OC)c1OC)C(=O)[C@@H](O)[C@H]2NC(N)=O	SW-620	GI50	> 100 µM (inactive)
CCCCc1c(N(C)C)c(OC(C)=O)c(-c2cn(C)c3ccccc23)oc1=O	SW-620	GI50	23.6 µM (inactive)
N#Cc1ccc(/N=N/N2CCCC2)cc1	SW-620	GI50	> 100 µM (inactive)
CCC1(C)NN=c2s/c(=C/c3ccc(OC)cc3)c(=O)n2N1 (centres undefined)	SW-620	GI50	> 100 µM (inactive)

---

test system: RPMI-8226; assay: NCI tumour cell line growth inhibition, 48 h
Activity calls are given as the source filed them. Cut-off read from the data, not from the text of the source: active = GI50 up to about 1.1 µM and inactive = higher.
Possible outcomes: active, inactive

COMPOUND	CATEGORY_LABEL
NC(=O)NNc1nc(-c2ccccc2)cs1	inactive
COc1ccc(Nc2nc3ccc(C(F)(F)F)cc3nc2C(=O)O)cc1	inactive
CCOC(=O)c1ccc(/N=c2\oc3ccc(OC)cc3cc2-c2nc3ccccc3[nH]2)cc1	inactive
CNc1cc2c(c3ccccc13)C(CCl)CN2C(=O)c1cc2cc(OC)c(OC)c(OC)c2[nH]1 (stereo unspecified)	active
c1cc2ccc1C1NCCCN1CCN1CCCNC1c1ccc(cc1)C1NCCCN1CCN1CCCNC21 (stereo unspecified)	inactive
CCCCCCC(=O)OC[n+]1ccc2c(C)c3[nH]c4ccc(OC)cc4c3c(C)c2c1	active
CC(C)N1CN(C(C(=O)N[C@@H]2C(=O)N3C2SC(C)(C)C3C(=O)O)c2ccc(O)cc2)CSC1=S (stereo partly specified)	inactive
COc1ccc(/N=C\c2ccc(N(CCC#N)CCC#N)cc2)cc1	inactive
Clc1ccc(C2=NN(c3ccccc3)C3c4cc(Br)ccc4OCC23)cc1 (stereo unspecified)	inactive
Cc1[nH]nc(C(=O)N/N=C/c2ccccc2Cl)c1/N=N\N(C)C	inactive
CCCCCCCCCCCCCCC(C(=O)[O-])[n+]1ccccc1 (stereo unspecified)	inactive

---

// reported GI50 per item
tested on: EKVX; test: NCI tumour cell line growth inhibition, 48 h
Activity calls are given as the source filed them. Rule as the data show it: active = GI50 up to about 1.1 µM and inactive = higher.

COMPOUND	EXPERIMENTAL_TARGET	GI50
C[C@]12CCC3[C@@H](CCC45OC4C(=O)CC[C@]35C)C1Cc1cnn(-c3ccc(F)cc3)c1N2 (some centres not stated)	EKVX	49.9 µM (inactive)
CC(=O)C1(O)CC2(c3ccccc3)C(=O)C1(c1ccccc1)C(c1ccccc1)=C2c1ccccc1 (configuration not stated)	EKVX	> 100 µM (inactive)
c1ccc2c(c1)c1ccccc1n2Cn1c2ccccc2c2ccccc21	EKVX	> 100 µM (inactive)
CC(C)(C)C(=C[S+]([O-])/N=C/c1ccccc1)C(C)(C)C (configuration not stated)	EKVX	52.1 µM (inactive)
OCc1cc2ccncc2c2c1[nH]c1ccccc12	EKVX	3.91 µM (inactive)
CCN(CC)CCCNc1nnc(C)c2[nH]c3ccccc3c12	EKVX	18.7 µM (inactive)
COc1cc(C(=O)C(CO)Oc2ccccc2OC)ccc1O (configuration not stated)	EKVX	> 100 µM (inactive)
CC(C)OP(=O)(OC(C)C)/C(=N/Nc1ccc([N+](=O)[O-])cc1)Nc1ccccc1	EKVX	35.1 µM (inactive)
Cc1cc(C)cc(Nc2cc(O)nc(O)n2)c1	EKVX	> 100 µM (inactive)
CN1CCCCC(C(O)(c2ccccc2)c2ccccc2)C1=O (configuration not stated)	EKVX	> 100 µM (inactive)
CCOC(=O)c1c2c(n(C)c1-c1ccccc1)C(=O)C(C)=CC2=O	EKVX	5.87 µM (inactive)
CC(N)/C(N)=N/O (configuration not stated)	EKVX	> 100 µM (inactive)
